Please go through the items and note down their IC50.
Molecular target: recombinant human Meningioma Expressed Antigen 5 (MGEA5), also referred to as O-GlcNAcase (OGA) (Homo sapiens, UniProt O60502)
Construct: Full length OGA enzyme was purchased at OriGene (cat #TP322411); purchased OriGene TP322411
Sequence (O60502 1-916): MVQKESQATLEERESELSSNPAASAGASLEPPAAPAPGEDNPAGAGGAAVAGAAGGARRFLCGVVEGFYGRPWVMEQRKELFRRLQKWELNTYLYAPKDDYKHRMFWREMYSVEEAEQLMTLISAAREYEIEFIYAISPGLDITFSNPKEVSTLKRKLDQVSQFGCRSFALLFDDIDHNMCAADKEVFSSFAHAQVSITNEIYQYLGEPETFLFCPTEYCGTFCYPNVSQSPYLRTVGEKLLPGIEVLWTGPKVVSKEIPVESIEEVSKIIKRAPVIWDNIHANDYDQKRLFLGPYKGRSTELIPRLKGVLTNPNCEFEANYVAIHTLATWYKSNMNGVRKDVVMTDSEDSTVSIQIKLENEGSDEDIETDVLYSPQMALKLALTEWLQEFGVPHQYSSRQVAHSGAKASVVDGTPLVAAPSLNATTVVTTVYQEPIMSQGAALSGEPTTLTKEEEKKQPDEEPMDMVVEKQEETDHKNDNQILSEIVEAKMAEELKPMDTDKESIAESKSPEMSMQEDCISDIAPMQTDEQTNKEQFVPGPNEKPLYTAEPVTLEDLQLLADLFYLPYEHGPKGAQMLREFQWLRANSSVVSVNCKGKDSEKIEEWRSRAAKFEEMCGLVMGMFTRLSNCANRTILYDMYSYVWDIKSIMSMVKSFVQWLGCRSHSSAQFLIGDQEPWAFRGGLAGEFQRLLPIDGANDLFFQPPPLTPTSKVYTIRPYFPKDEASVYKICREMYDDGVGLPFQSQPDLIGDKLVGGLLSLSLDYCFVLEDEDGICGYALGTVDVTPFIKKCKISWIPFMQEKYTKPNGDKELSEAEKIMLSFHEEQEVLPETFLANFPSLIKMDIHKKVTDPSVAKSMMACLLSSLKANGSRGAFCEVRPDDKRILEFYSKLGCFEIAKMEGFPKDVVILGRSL
Experiment: OGA biochemical assay (inhibition of FM-GlcNAc hydrolysis, fluorescence)
Settings: read-out: Enzymatic hOGA, pIC50 (converted)
Numeric answer only, unit nM assumed.

Answer with reported IC50 of Cc1cc(OC2CCN(C(C)c3cc4nc(C)sc4cc3F)CC2)nc(C)n1 (centres unmarked) 15.8

Hello, please tell me recorded IC50 for this one: Cc1cc(OC2CCN([C@@H](C)c3nc4c(cc3F)OCCO4)CC2)cc(C)n1 (single isomer, unassigned) 6310

Write down IC50 measured for item Cc1ncc(COC2CCN(C(C)c3nc4c(cc3F)OCCO4)CC2)cn1 (centres unmarked) [Compound 135] 31.6

Specify reported IC50 for the molecule shown: Cc1cc(OC2CCN(C(C)c3nc4c(cc3F)CCO4)CC2)cc(C)n1 (centres unmarked) 3.98

Identify measured IC50 associated with Cc1cc(COC2CCN(C(C)c3ccc4c(n3)OCCO4)CC2)cc(C)n1 (centres unmarked) 126

Output IC50 of CC(c1nc2c(cc1F)OCCO2)N1CCC(Oc2ccc(C(F)(F)F)cn2)CC1 (centres unmarked) 15.8

Give the reported value of IC50 for this record: Cc1cc(CC2(F)CCN(C(C)c3ccc4c(n3)OCCO4)CC2)cc(C)n1 (centres unmarked) 2000

Give IC50 for the following molecule: Cc1cc(OC2CCN(C(C)c3nc4c(cc3F)OCCO4)CC2)ccn1 (centres unmarked) 12.6

* * *

Molecular target: recombinant human Meningioma Expressed Antigen 5 (MGEA5), also referred to as O-GlcNAcase (OGA) (Homo sapiens, UniProt O60502)
Construct: Full length OGA enzyme was purchased at OriGene (cat #TP322411); purchased OriGene TP322411
Assay: OGA biochemical assay (inhibition of FM-GlcNAc hydrolysis, fluorescence)
Settings: read-out: Enzymatic hOGA, pIC50 (converted)
endpointLabel: IC50 (nM)
Return type: number; implicit unit nM.

Quickly give me recorded IC50 for Cc1cc(OC2CCN([C@H](C)c3nc4nc(C)sc4cc3F)CC2)cc(C)n1 (single isomer, unassigned) 631

Return IC50 for the following molecule: Cc1cncc(OC2CCN(C(C)c3ccc4c(n3)OCCO4)CC2)c1 (stereo not shown) 63.1

Identify the reported IC50 for the following entry. Cc1cc(OC2CCN(C(C)c3nc4c(cc3F)OCCO4)CC2)cc(C(F)(F)F)n1 (stereo not shown) 6.31

Report IC50, nothing else, for this molecule: Cc1ncc(COC2CCN([C@@H](C)c3nc4c(cc3F)OCCO4)CC2)cn1 (single isomer, unassigned) 398

* * *

Where a name gives a salt, the structure may show the parent alone.
Quick rule: melting point of at least 100 °C means t, below that means f.

# bool: melting point of Cc1ncc(OC2CCN(C(C)c3ccc4c(n3)OCCC4)CC2)cn1.Cl (centres unmarked) [Compound 139] >= 100 °C t

// inclusive: melting point at least 100 °C? input: Cc1ccc(NC2CCN(C(C)c3nc4c(cc3F)OCCO4)CC2)cn1 (centres unmarked) [Compound 126] t

# bool: melting point of Cc1cc(OC2CCN([C@@H](C)c3nc4c(cc3F)CCO4)CC2)cc(C)n1 (single isomer, unassigned) (as salt: HCl) [Compound 145] >= 100 °C t

Please check the record Cc1ncc(COC2CCN(C(C)c3nc4c(cc3F)OCCO4)CC2)cn1 (single isomer, unassigned) [Compound 136] and state if its melting point is at or above 100 °C. f

# bool: melting point of Cc1cc(CC2CCN(C(C)c3ccc4c(n3)OCCO4)CC2)cc(C)n1 (centres unmarked) [Compound 140] >= 100 °C t

Does the compound Cc1cc(OC2CCN(C(C)c3ccc4c(n3)OCCO4)CC2)cc(OC(C)C)n1 (centres unmarked) (as salt: HCl) [Compound 124] have recorded melting point that is 100 °C or more? t

Identify whether the reported melting point of the following compound is 100 °C or greater: CCc1cc(OC2CCN(C(C)c3ccc4c(n3)OCCO4)CC2)cc(C)n1 (centres unmarked) (as salt: HCl) [Compound 129] f

Does the compound CC(c1nc2c(cc1F)OCCO2)N1CCC(Oc2ccc(C(=O)N(C(C)C)C(C)C)nc2)CC1 (centres unmarked) (as salt: HCl) [Compound 123] have recorded melting point that is 100 °C or more? t

* * *

Target: OGA (Homo sapiens, UniProt O60502)
Construct: HEK293 cells inducible for P301L mutant human Tau (isoform 2N4R) were established at Janssen; endogenous in cells; host or cells: HEK293 cells inducible for P301L mutant human Tau (2N4R)
Sequence (O60502 1-916): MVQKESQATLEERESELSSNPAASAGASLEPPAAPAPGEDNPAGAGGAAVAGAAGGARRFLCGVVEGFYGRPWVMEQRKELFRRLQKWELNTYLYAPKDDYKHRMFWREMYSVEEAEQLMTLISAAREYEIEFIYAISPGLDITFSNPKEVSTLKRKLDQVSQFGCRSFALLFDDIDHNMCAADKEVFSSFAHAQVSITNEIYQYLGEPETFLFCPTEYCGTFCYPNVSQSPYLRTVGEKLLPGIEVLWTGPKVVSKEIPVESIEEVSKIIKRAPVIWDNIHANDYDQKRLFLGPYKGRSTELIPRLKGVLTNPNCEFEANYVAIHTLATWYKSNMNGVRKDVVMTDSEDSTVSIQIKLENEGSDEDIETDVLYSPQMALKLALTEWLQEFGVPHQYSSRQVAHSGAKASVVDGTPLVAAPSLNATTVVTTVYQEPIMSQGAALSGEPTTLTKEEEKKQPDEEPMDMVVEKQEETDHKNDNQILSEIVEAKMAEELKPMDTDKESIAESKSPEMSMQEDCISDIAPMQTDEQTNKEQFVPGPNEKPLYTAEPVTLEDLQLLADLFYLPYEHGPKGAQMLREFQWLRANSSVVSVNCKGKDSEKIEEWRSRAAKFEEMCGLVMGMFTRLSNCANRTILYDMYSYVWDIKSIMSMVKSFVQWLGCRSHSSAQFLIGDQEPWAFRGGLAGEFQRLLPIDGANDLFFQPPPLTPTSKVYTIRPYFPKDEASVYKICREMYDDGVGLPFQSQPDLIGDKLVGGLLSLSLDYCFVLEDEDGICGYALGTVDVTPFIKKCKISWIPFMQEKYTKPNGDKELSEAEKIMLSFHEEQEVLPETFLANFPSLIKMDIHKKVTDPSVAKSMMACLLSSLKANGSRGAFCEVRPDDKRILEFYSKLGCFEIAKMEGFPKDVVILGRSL
Assay: OGA cellular assay (ICC detection of O-GlcNAcylated proteins in HEK293 cells inducible for P301L mutant human Tau)
Format: cell-based
Conditions: HEK293 cells inducible for P301L mutant human Tau, 6 hours incubation; read-out: Cellular hOGA; pEC50 (converted)
endpointLabel: EC50 (nM)
Your answer should be a plain number; it is taken to be in nM.

Give the measured EC50 for Cc1cc(OC2CCN(C(C)c3ccc4sc(C)nc4n3)CC2)cc(C)n1 (centres unmarked) [Compound 7] 398

Tell me measured EC50 for Cc1cc(OC2CCN(C(C)c3ccc4sc(C)nc4n3)CC2)cc(C(F)(F)F)n1 (centres unmarked) [Compound 21] please. 813

Using the record for CC(c1nc2c(cc1F)OCCO2)N1CCC(Oc2ccc(C#N)nn2)CC1 (centres unmarked) [Compound 92] , state its measured EC50. 126

For the compound CC(c1ccc2c(n1)OCCO2)N1CCC(Oc2ccc(C#N)nc2)CC1 (centres unmarked) [Compound 150] , report EC50. 398

Output EC50 of Cc1cc(OC2CCN([C@@H](C)c3ccc4c(n3)OCCO4)CC2)cc(C(F)(F)F)n1 (single isomer, unassigned) [Compound 147] 200
